Tested on: A2780 (ovarian carcinoma)
Assay: SRB cytotoxicity assay, A2780
Format: cell-based, human
Settings: SRB assay, 72 h treatment, mean n = 3, SD 5-10%
Description: All compounds were screened for their cytotoxic activity and tumor cell selectivity using our standard model, previously described, comprising a selection of human tumor cell lines representing different solid tumor entities and non-malignant human fibroblasts (CCD18Co) including the cell line pair A2780/A2780cis, a well-known model of acquired drug resistance. […] Cytotoxic activities of compounds were analyzed using the SRB cytotoxicity assay. […]
RECORDED_METRIC: pIC50
pIC50 (log units): -log10 of the concentration in mol/L.

// pIC50 lookup, key: CC12CCC3C(CCC4C(C)(C(=O)OCCCCBr)CCCC34C)(CC1=O)C2 (stereo not drawn) [Compound 23] 4.89

// pIC50 lookup, key: C=C1C[C@@]23CC[C@H]4[C@@](C)(CCC[C@@]4(C)C(=O)OCCCC[n+]4cccc(/C=C/c5c[nH]c6ccccc56)c4)[C@@H]2CC[C@]1(O)C3.[Br-] [Compound 26] 5.89

Here's the next entry for you.
// pIC50 lookup, key: CC12CCC3C(CCC4C(C)(C(=O)OCCC[n+]5ccc(C=Cc6c[nH]c7ccccc67)cc5)CCCC34C)(CC1=O)C2.[Br-] (stereo not drawn) [Compound 17] 6.55

---

Test system: A2780 (ovarian carcinoma)
Experiment: SRB cytotoxicity assay, A2780
Type: cell-based, human
Conditions: CCD18Co/A2780
# strict inequality: selectivity index 1 (SI 1) < 20 yields True, everything else yields False

The examples below pair each entry with its known result.
Please let me know if CC12CCC3C(CCC4C(C)(C(=O)OCCC[n+]5ccc(C=Cc6c[nH]c7ccccc67)cc5)CCCC34C)(CC1=O)C2.[Br-] (stereo not drawn) shows selectivity index 1 (SI 1) below 20. False

Please let me know if CC12CCC3C(CCC4C(C)(C(=O)OCCCC[n+]5cccc(C=Cc6c[nH]c7ccccc67)c5)CCCC34C)(CC1=O)C2.[Br-] (stereo not drawn) shows selectivity index 1 (SI 1) below 20. True

Please let me know if C=C1C[C@@]23CC[C@H]4[C@@](C)(CCC[C@@]4(C)C(=O)OCCC[n+]4cccc(/C=C/c5c[nH]c6ccccc56)c4)[C@@H]2CC[C@]1(O)C3.[Br-] shows selectivity index 1 (SI 1) below 20. True

Please let me know if C=C1C[C@@]23CC[C@H]4[C@@](C)(CCC[C@@]4(C)C(=O)OCCCC[n+]4ccccc4/C=C/c4c[nH]c5ccccc45)[C@@H]2CC[C@]1(O)C3.[Br-] shows selectivity index 1 (SI 1) below 20. False

Please let me know if COc1cccc2c1C(=O)c1c(O)c3c(c(O)c1C2=O)C[C@@](O)(C(=O)CO)C[C@@H]3O[C@H]1C[C@H](N)[C@H](O)[C@H](C)O1 [DOX, doxorubicin, reference compound] shows selectivity index 1 (SI 1) below 20. False

Next:
Please let me know if CC12CCC3C(CCC4C(C)(C(=O)OCCCBr)CCCC34C)(CC1=O)C2 (stereo not drawn) shows selectivity index 1 (SI 1) below 20. True

---

System: A2780 (ovarian carcinoma)
Test: SRB cytotoxicity assay, A2780
Format: cell-based, human
Settings: SRB assay, 72 h treatment, mean n = 3, SD 5-10%
The following compounds are listed with their measured IC50 values.
Write it as a number; the unit µM goes unstated.

Lab request: please report IC50 under test system A2780 (ovarian carcinoma) for C=C1C[C@@]23CC[C@H]4[C@@](C)(CCC[C@@]4(C)C(=O)OCCBr)[C@@H]2CC[C@]1(O)C3 24.8

Lab request: please report IC50 under test system A2780 (ovarian carcinoma) for C=C1C[C@@]23CC[C@H]4[C@@](C)(CCC[C@@]4(C)C(=O)OCCCC[n+]4ccccc4/C=C/c4c[nH]c5ccccc45)[C@@H]2CC[C@]1(O)C3.[Br-] 0.5

Here's the next entry for you.
Lab request: please report IC50 under test system A2780 (ovarian carcinoma) for C=C1C[C@@]23CC[C@H]4[C@@](C)(CCC[C@@]4(C)C(=O)OCCC[n+]4ccccc4/C=C/c4c[nH]c5ccccc45)[C@@H]2CC[C@]1(O)C3.[Br-] 1.81
